Observed Ki for Prostaglandin E2 receptor EP1 subtype (Mus musculus), reported per entry below.
reported.endpoint: Ki (µM)

Some entries whose results are on file:
{"substance.smiles": "O=C(O)c1csc(SCCN2C(=O)CC[C@@H]2/C=C/[C@@H](O)Cc2cccc(-c3nc4cc(Cl)ccc4s3)c2)n1", "Ki (µM)": 0.68}
{"substance.smiles": "Cc1ccc(-c2cccc(C[C@H](O)/C=C/[C@H]3CCC(=O)N3CCSc3nc(C(=O)O)cs3)c2)cc1", "Ki (µM)": 6.1}
{"substance.smiles": "Cc1ccc(-c2cccc(C[C@H](O)/C=C/[C@H]3CCC(=O)N3CCSc3nc(C(=O)O)cs3)c2)cc1C", "Ki (µM)": 2.5}

[1] Cc1cc(C)c2oc(-c3cccc(C[C@H](O)/C=C/[C@H]4CCC(=O)N4CCSc4nc(C(=O)O)cs4)c3)nc2c1
[2] COc1ccc(-c2cccc(C[C@H](O)/C=C/[C@H]3CCC(=O)N3CCSc3nc(C(=O)O)cs3)c2)cc1
[3] Cc1ccc2nc(-c3cccc(C[C@H](O)/C=C/[C@H]4CCC(=O)N4CCSc4nc(C(=O)O)cs4)c3)oc2c1
[4] O=C(O)c1csc(SCCN2C(=O)CC[C@@H]2/C=C/[C@@H](O)Cc2cccc(-c3nc4cc(Cl)ccc4o3)c2)n1
Incoming: Rank by Ki (largest to smallest). Provide the labels, sequenced as the question asks.
Outgoing: 2, 1, 4, 3

###

Observed pKi for Prostaglandin E2 receptor EP2 subtype (Mus musculus, UniProt Q62053), reported per entry below.
pKi: −log10 of the molar value.

Some entries whose results are on file:
{"substance.smiles": "O=C(O)CCCSCCN1C(=O)CC[C@@H]1/C=C/[C@@H](O)Cc1cccc(OCc2cccnc2)c1", "pKi": "< 5.00"}
{"substance.smiles": "O=C(O)CCCSCCN1C(=O)CC[C@@H]1/C=C/[C@@H](O)Cc1cccc(OCc2ccccn2)c1", "pKi": "< 5.00"}

Would you kindly look at the next entry?
Incoming: Using the record for "O=C(O)CCCSCCN1C(=O)CC[C@@H]1/C=C/[C@@H](O)Cc1cccc(N2Cc3ccccc3C2)c1" , report its pKi.
Outgoing: < 5.00
